Target: UniProt P52732
Sequence (P52732 whole entry, looked up): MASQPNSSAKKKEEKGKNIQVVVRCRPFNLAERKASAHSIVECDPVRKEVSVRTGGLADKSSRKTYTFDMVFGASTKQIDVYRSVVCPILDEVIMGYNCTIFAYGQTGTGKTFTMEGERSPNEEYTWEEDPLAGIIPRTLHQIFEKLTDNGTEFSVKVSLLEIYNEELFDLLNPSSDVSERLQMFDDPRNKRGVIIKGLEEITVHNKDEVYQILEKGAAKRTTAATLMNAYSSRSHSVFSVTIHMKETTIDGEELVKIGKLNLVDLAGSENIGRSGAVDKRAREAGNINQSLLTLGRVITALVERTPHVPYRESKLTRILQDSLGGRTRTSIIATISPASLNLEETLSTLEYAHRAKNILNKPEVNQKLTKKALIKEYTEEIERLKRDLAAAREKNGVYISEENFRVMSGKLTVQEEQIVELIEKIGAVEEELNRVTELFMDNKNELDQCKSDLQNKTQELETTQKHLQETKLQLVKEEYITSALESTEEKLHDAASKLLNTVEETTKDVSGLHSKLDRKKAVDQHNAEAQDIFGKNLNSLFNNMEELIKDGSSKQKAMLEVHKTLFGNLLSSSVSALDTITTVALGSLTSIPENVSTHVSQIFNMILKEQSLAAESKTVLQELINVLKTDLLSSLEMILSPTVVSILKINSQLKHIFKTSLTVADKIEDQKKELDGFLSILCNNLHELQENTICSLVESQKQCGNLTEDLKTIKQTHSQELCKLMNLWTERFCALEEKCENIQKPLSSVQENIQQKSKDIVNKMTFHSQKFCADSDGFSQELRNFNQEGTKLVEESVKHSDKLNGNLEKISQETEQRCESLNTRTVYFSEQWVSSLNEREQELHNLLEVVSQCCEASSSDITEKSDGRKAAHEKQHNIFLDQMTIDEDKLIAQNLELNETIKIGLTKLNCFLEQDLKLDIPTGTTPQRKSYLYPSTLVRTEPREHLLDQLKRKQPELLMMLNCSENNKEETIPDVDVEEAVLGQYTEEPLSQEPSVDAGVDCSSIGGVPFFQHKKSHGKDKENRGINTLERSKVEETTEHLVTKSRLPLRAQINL
pIC50: −log10 of the molar value.
Endpoint label: pIC50

| Structure string | Endpoint label | Value observed |
| --- | --- | --- |
| CC(=O)N1N=C(c2ccccc2Cl)C[C@H]1c1cccc(O)c1 | pIC50 | 6.35 |

* * *

Molecular target: Potassium voltage-gated channel subfamily H member 2 (Homo sapiens)
Sequence (Q12809 whole entry): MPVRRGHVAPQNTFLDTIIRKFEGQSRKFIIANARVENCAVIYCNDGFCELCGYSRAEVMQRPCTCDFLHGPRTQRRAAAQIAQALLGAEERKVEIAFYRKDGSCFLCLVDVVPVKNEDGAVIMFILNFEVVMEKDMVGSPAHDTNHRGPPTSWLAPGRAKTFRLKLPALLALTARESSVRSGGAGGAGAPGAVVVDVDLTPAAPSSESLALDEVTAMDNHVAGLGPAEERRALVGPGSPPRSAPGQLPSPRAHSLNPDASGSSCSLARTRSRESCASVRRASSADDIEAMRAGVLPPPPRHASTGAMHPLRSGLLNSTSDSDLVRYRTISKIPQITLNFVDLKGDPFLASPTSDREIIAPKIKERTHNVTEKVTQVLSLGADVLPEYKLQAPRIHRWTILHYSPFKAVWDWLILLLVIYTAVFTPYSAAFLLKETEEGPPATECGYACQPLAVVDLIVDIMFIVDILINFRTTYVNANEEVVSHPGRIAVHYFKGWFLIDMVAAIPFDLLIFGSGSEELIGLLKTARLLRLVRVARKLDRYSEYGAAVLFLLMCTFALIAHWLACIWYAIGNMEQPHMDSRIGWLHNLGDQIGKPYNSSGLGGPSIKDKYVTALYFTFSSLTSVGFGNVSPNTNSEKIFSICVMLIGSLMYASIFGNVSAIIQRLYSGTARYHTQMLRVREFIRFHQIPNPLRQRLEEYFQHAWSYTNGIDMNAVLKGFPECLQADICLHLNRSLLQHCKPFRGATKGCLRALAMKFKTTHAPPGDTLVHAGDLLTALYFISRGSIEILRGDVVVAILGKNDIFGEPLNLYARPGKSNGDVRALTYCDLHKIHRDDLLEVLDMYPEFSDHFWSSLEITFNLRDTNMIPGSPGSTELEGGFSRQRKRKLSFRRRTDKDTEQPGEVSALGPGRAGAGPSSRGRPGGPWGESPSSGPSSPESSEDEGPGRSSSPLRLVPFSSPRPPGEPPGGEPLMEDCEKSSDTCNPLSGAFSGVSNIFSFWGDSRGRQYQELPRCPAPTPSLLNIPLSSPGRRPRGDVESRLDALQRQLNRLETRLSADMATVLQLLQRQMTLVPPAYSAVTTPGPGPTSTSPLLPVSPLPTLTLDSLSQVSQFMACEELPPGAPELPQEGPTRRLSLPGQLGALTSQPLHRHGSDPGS
pIC50: −log10 of the molar value.

| Structure string | pIC50 |
| --- | --- |
| CN(C)C(=O)N1N=C(c2cc(F)ccc2F)C[C@@]1(CCCN)c1ccccc1 | 4.71 |
